Values compiled from patent US9422312B2.

Measured EC50, listed per entry.
- System: Activated AMPK complex 1 (containing alpha1beta1gamma1) (Homo sapiens (Human), UniProt Q13131+Q9Y478)
- Sequence (Q13131 whole entry): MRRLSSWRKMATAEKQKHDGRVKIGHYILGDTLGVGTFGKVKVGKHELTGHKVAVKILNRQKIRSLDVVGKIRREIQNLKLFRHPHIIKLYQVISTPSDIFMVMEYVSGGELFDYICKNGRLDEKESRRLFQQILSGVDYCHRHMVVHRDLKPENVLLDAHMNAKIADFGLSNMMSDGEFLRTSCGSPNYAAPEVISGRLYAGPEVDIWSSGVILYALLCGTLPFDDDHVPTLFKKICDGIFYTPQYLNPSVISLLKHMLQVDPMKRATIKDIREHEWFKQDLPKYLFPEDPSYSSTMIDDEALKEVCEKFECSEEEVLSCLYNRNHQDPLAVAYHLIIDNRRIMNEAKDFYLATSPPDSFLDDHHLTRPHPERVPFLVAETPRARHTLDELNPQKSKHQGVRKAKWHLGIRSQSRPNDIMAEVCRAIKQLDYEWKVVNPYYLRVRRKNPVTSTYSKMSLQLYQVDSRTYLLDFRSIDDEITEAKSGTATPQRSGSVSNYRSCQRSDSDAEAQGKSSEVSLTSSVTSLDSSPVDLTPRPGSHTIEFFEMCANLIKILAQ
- Sequence (Q9Y478 whole entry): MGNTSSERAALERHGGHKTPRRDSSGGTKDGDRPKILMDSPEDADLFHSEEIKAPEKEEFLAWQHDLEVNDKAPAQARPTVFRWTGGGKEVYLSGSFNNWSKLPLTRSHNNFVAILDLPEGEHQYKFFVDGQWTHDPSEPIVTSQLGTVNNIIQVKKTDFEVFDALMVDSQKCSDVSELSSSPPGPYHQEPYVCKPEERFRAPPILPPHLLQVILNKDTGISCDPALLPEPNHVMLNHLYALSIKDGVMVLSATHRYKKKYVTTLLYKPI
- Sequence (P54619 whole entry partner): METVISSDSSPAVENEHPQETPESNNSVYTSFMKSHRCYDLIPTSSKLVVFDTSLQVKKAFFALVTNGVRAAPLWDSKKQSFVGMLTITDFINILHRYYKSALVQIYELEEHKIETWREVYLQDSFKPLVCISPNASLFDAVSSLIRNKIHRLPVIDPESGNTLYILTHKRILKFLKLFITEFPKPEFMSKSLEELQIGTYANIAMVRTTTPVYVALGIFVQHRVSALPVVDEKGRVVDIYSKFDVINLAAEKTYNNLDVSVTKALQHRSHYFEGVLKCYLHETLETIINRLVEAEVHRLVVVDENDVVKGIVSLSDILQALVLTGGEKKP
- Method notes: in vitro AMPK activation assay (ADP-Glo Kinase Assay)
- Test context: 1 μM peptide substrate, 30 μM ATP, 60 min, room temperature, luminescence

- Compound: "CCN(C)S(C)(=O)=Nc1ccc(-c2ccc(-c3nc4[nH]c(O[C@@H]5CO[C@H]6[C@@H]5OC[C@H]6O)nc4cc3Cl)cc2)cc1 (stereo partly drawn) [Example 4]"
  EC50 [µM]: 0.052
- Compound: "CS(=O)(=Nc1ccc(-c2ccc(-c3nc4[nH]c(O[C@@H]5CO[C@H]6[C@@H]5OC[C@H]6O)nc4cc3Cl)cc2)cc1)NC1CCC1 (stereo partly drawn) [Example 7]"
  EC50 [µM]: 0.037
- Compound: "CN(C)S(C)(=O)=NCc1ccc(-c2ccc(-c3nc4[nH]c(O[C@@H]5CO[C@H]6[C@@H]5OC[C@H]6O)nc4cc3Cl)cc2)cc1 (stereo partly drawn) [Example 20]"
  EC50 [µM]: 0.082
- Compound: "CS(=O)(=Nc1ccc(-c2ccc(-c3nc4[nH]c(O[C@@H]5CO[C@H]6[C@@H]5OC[C@H]6O)nc4cc3Cl)cc2)cc1)N1CCC1 (stereo partly drawn) [Example 5]"
  EC50 [µM]: 0.015
- Compound: "CN(C)S(C)(=O)=Nc1cnc(-c2ccc(-c3nc4[nH]c(O[C@@H]5CO[C@H]6[C@@H]5OC[C@H]6O)nc4cc3Cl)cc2)nc1 (stereo partly drawn) [Example 13]"
  EC50 [µM]: 0.03
- Compound: "CN(C)S(C)(=O)=Nc1ccc(-c2nc3[nH]c(O[C@@H]4CO[C@H]5[C@@H]4OC[C@H]5O)nc3cc2Cl)cc1 (stereo partly drawn) [Example 21]"
  EC50 [µM]: 2.9
- Compound: "CS(=O)(=Nc1ccc(-c2ccc(-c3nc4[nH]c(O[C@@H]5CO[C@H]6[C@@H]5OC[C@H]6O)nc4cc3Cl)cc2)cc1)N1CCCC1 (stereo partly drawn) [Example 6]"
  EC50 [µM]: 0.054
- Compound: "CN=S(=O)(NC)c1ccc(-c2ccc(-c3nc4[nH]c(O[C@@H]5CO[C@H]6[C@@H]5OC[C@H]6O)nc4cc3Cl)cc2)cc1 (stereo partly drawn) [Example 18]"
  EC50 [µM]: 0.067
- Compound: "CS(=O)(=Nc1ccc(-c2ccc(-c3nc4[nH]c(O[C@@H]5CO[C@H]6[C@@H]5OC[C@H]6O)nc4cc3Cl)cc2)cc1)NC1CC1 (stereo partly drawn) [Example 9]"
  EC50 [µM]: 0.089
- Compound: "CNS(C)(=O)=Nc1ccc(-c2ccc(-c3nc4[nH]c(O[C@@H]5CO[C@H]6[C@@H]5OC[C@H]6O)nc4cc3Cl)cc2)cc1 (stereo partly drawn) [Example 2]"
  EC50 [µM]: 0.02
- Compound: "CCNS(C)(=O)=Nc1ccc(-c2ccc(-c3nc4[nH]c(O[C@@H]5CO[C@H]6[C@@H]5OC[C@H]6O)nc4cc3Cl)cc2)cc1 (stereo partly drawn) [Example 8]"
  EC50 [µM]: 0.061
- Compound: "CN(C)S(C)(=O)=Nc1ccc(-c2ccc(-c3nc4[nH]c(O[C@@H]5CO[C@H]6[C@@H]5OC[C@H]6O)nc4cc3Cl)cc2)cc1 (stereo partly drawn) [Example 1]"
  EC50 [µM]: 0.026
- Compound: "CS(=O)(=NCc1ccc(-c2ccc(-c3nc4[nH]c(O[C@@H]5CO[C@H]6[C@@H]5OC[C@H]6O)nc4cc3Cl)cc2)cc1)N1CCCC1 (stereo partly drawn) [Example 19]"
  EC50 [µM]: 0.138
- Compound: "CN=S(=O)(c1ccc(-c2ccc(-c3nc4[nH]c(O[C@@H]5CO[C@H]6[C@@H]5OC[C@H]6O)nc4cc3Cl)cc2)cc1)N(C)C (stereo partly drawn) [Example 15]"
  EC50 [µM]: 0.09
- Compound: "CC(C)NS(C)(=O)=Nc1ccc(-c2ccc(-c3nc4[nH]c(O[C@@H]5CO[C@H]6[C@@H]5OC[C@H]6O)nc4cc3Cl)cc2)cc1 (stereo partly drawn) [Example 3]"
  EC50 [µM]: 0.094
- Compound: "CNS(C)(=O)=Nc1ccc(-c2ccc(-c3nc4[nH]c(O[C@@H]5CO[C@H]6[C@@H]5OC[C@H]6O)nc4cc3Cl)cc2)nc1 (stereo partly drawn) [Example 11]"
  EC50 [µM]: 0.062
- Compound: "CS(=O)(=Nc1cnc(-c2ccc(-c3nc4[nH]c(O[C@@H]5CO[C@H]6[C@@H]5OC[C@H]6O)nc4cc3Cl)cc2)nc1)N1CCCC1 (stereo partly drawn) [Example 16]"
  EC50 [µM]: 0.048
- Compound: "N#CN=S1(=O)CCCN1c1ccc(-c2ccc(-c3nc4[nH]c(O[C@@H]5CO[C@H]6[C@@H]5OC[C@H]6O)nc4cc3Cl)cc2)cc1 (stereo partly drawn) [Example 17]"
  EC50 [µM]: 0.202
- Compound: "N=S1(=O)CCCN1Cc1ccc(-c2ccc(-c3nc4[nH]c(O[C@@H]5CO[C@H]6[C@@H]5OC[C@H]6O)nc4cc3Cl)cc2)cc1 (stereo partly drawn) [Example 14]"
  EC50 [µM]: 0.052
- Compound: "CN(C)S(=N)(=O)c1ccc(-c2ccc(-c3nc4[nH]c(O[C@@H]5CO[C@H]6[C@@H]5OC[C@H]6O)nc4cc3Cl)cc2)cc1 (stereo partly drawn) [Example 12]"
  EC50 [µM]: 0.002
- Compound: "CN(C)S(C)(=O)=Nc1ccc(-c2ccc(-c3nc4[nH]c(O[C@@H]5CO[C@H]6[C@@H]5OC[C@H]6O)nc4cc3Cl)cc2)nc1 (stereo partly drawn) [Example 10]"
  EC50 [µM]: 0.017
